- Target Or System: mMC1R (Mus musculus, UniProt Q01727)
- Sequence (Q01727 whole entry): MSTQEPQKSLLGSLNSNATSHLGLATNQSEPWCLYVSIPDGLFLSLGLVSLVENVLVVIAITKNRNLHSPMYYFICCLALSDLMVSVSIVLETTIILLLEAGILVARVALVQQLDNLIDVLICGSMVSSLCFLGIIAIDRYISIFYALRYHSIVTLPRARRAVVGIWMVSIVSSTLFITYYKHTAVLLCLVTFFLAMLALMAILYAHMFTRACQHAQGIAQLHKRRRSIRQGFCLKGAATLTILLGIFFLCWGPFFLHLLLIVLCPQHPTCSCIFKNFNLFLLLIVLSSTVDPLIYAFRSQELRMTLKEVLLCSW
- Experimental Protocol: AlphaScreen cAMP agonist assay, HEK293 cells stably expressing mMC1R
- Assay type: cell-based
- Condition: partial agonists
Square brackets hold non-standard residues; d marks the D form. Peptide text beside a SMILES is read from it. dPhe(4-I) = N[C@H](Cc1ccc(I)cc1)C(=O)O; 2Nal = N[C@@H](Cc1ccc2ccccc2c1)C(=O)O; d2Nal = N[C@H](Cc1ccc2ccccc2c1)C(=O)O
The reader will find reported mMC1R partial agonist percentage of receptor activation relative to NDP-MSH values listed item by item below.
Observation Type: mMC1R partial agonist percentage of receptor activation relative to NDP-MSH (% NDP)

CC(=O)N[C@H](Cc1ccc2ccccc2c1)C(=O)N[C@@H](CCCNC(=N)N)C(=O)N[C@H](Cc1ccc2ccccc2c1)C(=O)N[C@H](Cc1ccc2ccccc2c1)C(N)=O [Peptide 14, Ac-DNal(2’)-Arg-DNal(2’)-DNal(2’)-NH2] (Ac-[d2Nal]R[d2Nal][d2Nal]-NH2): 85
CC(=O)N[C@H](Cc1ccc(I)cc1)C(=O)N[C@@H](CCCNC(=N)N)C(=O)N[C@@H](Cc1c[nH]c2ccccc12)C(=O)N[C@@H](CCCNC(=N)N)C(N)=O [Peptide 42, Ac-DPhe(pI)-Arg-Trp-Arg-NH2] (Ac-[dPhe(4-I)]RWR-NH2): 50
CC(=O)N[C@H](Cc1ccc2ccccc2c1)C(=O)N[C@@H](CCCNC(=N)N)C(=O)N[C@H](Cc1ccc2ccccc2c1)C(=O)N[C@H](CCCCN)C(N)=O [Peptide 13, Ac-DNal(2’)-Arg-DNal(2’)-DLys-NH2] (Ac-[d2Nal]R[d2Nal][dK]-NH2): 30
CC(=O)N[C@H](Cc1ccc2ccccc2c1)C(=O)N[C@@H](CCCNC(=N)N)C(=O)N[C@@H](Cc1ccc2ccccc2c1)C(=O)N[C@H](CCCCN)C(N)=O [Peptide 22, Ac-DNal(2’)-Arg-Nal(2’)-DLys-NH2] (Ac-[d2Nal]R[2Nal][dK]-NH2): 50
CC(=O)N[C@H](Cc1ccc2ccccc2c1)C(=O)N[C@@H](CCCNC(=N)N)C(=O)N[C@H](Cc1ccc2ccccc2c1)C(=O)N[C@@H](CCCNC(=N)N)C(N)=O [Peptide 15, Ac-DNal(2’)-Arg-DNal(2’)-Arg-NH2] (Ac-[d2Nal]R[d2Nal]R-NH2): 60

// data source = paper PMC8533642
